- System: SNB-75 CNS
- experiment description: NCI-60 one-dose screen, 48 h (100 = growth as untreated, 0 = no growth, -100 = all killed)
- condition description: 10 µM unless noted
About 83,000 compounds went through this panel and 20% of them were active in at least one assay; those are over-represented in the sample as a whole.
Below, each of the molecules is paired with its reported growth value.
State just the number; it will be interpreted in %.

Some solved entries appear below for comparison.
Cn1c2ccccc2c2c3[nH]c(=O)[nH]c(=O)c3c3c4ccccc4n(C)c3c21: -38.4
COc1ccc(CCN2CCCn3c2nc2ccccc2c3=O)cc1: 17.5
CN(C)c1ccc(C2Nc3ccccc3-n3cccc32)cc1 (configuration not stated): 107
O=C(COCc1c(-c2ccccc2)no[n+]1[O-])Nc1ccc(C(=O)/C=C/c2ccc3c(c2)OCO3)cc1: 120
O=C(COc1cccc(/C=C2/Oc3ccccc3C2=O)c1)Nc1nccs1: 84.8

// next item, growth requested
Per the records, this molecule ( Cc1ccc(Nc2c(C(N)=O)cnc3ccc(-c4csc(N)n4)cc23)cc1 ) has growth equal to 96.9

Recorded values, source PubChem BioAssay (NCI).
